# Species: Rattus norvegicus
# EXPERIMENT_DESCRIPTION: Open TG-GATES - Regimen: Daily Repeat
# Format: toxicity, organism-based, Sprague-Dawley
# Set-up: regimen Daily Repeat, gender Male, age 6 weeks
# APPLIED_CONDITIONS: in vivo, po, 0 mg/kg, […], tissue Plasma, route gavage, dose level Control, time 7 day

MOLECULE	UNIT_SYMBOL	BUN
O=C(CCCN1CCC(O)(c2ccc(Cl)cc2)CC1)c1ccc(F)cc1	mg/dL	20.2
CCOC(=O)CCC(=O)O[C@H]1[C@H](O[C@@H]2[C@@H](C)[C@H](O[C@H]3C[C@@](C)(OC)[C@@H](O)[C@H](C)O3)[C@@H](C)C(=O)O[C@H](CC)[C@@](C)(O)[C@H](O)[C@@H](C)C(=O)[C@H](C)C[C@@]2(C)O)O[C@H](C)C[C@@H]1N(C)C [ERYTHROMYCIN ETHYLSUCCINATE]	mg/dL	20.4
CN(C)CCN(Cc1cccs1)c1ccccn1	mg/dL	17.8
